// provenance: ChEMBL document CHEMBL5126530

biological target: Prostaglandin D2 receptor (Homo sapiens, UniProt Q13258); assay: Agonist activity at human DP1 expressed in human 1321N1 cells assessed as increase in cAMP level incubated for 20 mins measured after 60 mins addition of cAMP detect reagent by HTRF analysis
Sequence (Q13258 whole entry): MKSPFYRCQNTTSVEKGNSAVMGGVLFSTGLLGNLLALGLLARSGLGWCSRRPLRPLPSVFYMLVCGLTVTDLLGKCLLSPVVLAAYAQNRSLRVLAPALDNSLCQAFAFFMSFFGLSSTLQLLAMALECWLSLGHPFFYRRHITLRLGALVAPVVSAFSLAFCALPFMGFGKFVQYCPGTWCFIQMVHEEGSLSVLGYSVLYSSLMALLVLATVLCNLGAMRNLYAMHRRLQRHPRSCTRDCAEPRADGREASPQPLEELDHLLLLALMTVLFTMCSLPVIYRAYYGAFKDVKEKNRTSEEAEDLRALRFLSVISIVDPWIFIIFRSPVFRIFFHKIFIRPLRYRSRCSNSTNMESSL
EC50 by entry:

MOLECULE: CCCCC[C@H](O)CC[C@@H]1[C@H]2Cc3cccc(OCC(=O)O)c3C[C@H]2C[C@H]1O
UNIT TEXT: nM
EC50: 0.6

MOLECULE: CC#CCC(C)[C@H](O)/C=C/[C@@H]1[C@H]2C/C(=C/CCCC(=O)O)C[C@H]2C[C@H]1O (some centres not stated)
UNIT TEXT: nM
EC50: 2060
